Entry source: PubChem BioAssay (NCI)

# TGI per record follows
# Test system: LXFL 529 NSCLC
# Method: NCI tumour cell line growth inhibition, 48 h
Metric name: TGI

>>> result("O=C1CSC(C(N=Nc2ccc(Cl)cc2)c2nc3ccccc3[nH]2)=N1 (configuration not stated)")
"> 100 µM"
>>> result("O=C1CCC2(c3ccccc3)Nc3ccc(Cl)cc3N12 (configuration not stated)")
"> 100 µM"
>>> result("O=C1N[C@H]2[C@H](O)[C@H](O)[C@@H](O)[C@H](O)[C@@H]2c2cc3c(c(O)c21)OCO3")
"4.13 µM"
>>> result("Cc1cc(C)c(C(=O)/C=C/c2ccccc2)c(C)c1")
"> 100 µM"
>>> result("Cc1cc2c(C(C)C)c(O)c(O)c(C=Nc3ccccc3)c2c(O)c1-c1c(C)cc2c(C(C)C)c(O)c(O)c(C=Nc3ccccc3)c2c1O")
"> 100 µM"
>>> result("COc1cc2ccc(CC(N)=O)cc2cc1OC")
"> 100 µM"
>>> result("Cc1ccc(S(=O)(=O)SCc2ccccc2)cc1")
"47.4 µM"
>>> result("CC1=C/C(=C2/N=C(N(C)C)SS2)C(C)=N1")
"> 100 µM"
>>> result("Cc1ccc2c(CC(=O)O)cc(=O)oc2c1")
"> 100 µM"
>>> result("CCN(CC)CCNC(=O)c1nn(-c2ccc(Cl)cc2)c2c1CCc1cc(OC)ccc1-2")
"16.4 µM"
>>> result("Clc1cccc2c1OCC1C(c3ccccc3)=NN(c3ccccc3)C21 (configuration not stated)")
"> 100 µM"
>>> result("Cc1cc(NS(=O)(=O)c2ccc(Nc3c4ccccc4nc4c(C(=O)Nc5ccc(S(=O)(=O)N=C(N)N)cc5)ccc(Cl)c34)cc2)no1")
"> 100 µM"

---

In this section we review reported TGI values for a set of compounds.
# Test system: SW-620 colon
# Method: NCI tumour cell line growth inhibition, 48 h
Metric name: TGI

>>> result("O=C1CCC2(c3ccccc3)Nc3ccc(Cl)cc3N12 (stereo unspecified)")
"> 100 µM"
>>> result("COc1cc2c(cc1OC)[C@@H]([C@H](O)c1ccccc1)NCC2")
"> 100 µM"
>>> result("Oc1ccccc1-c1nn2c(CCCCCCCCc3nnc4sc(-c5ccccc5O)nn34)nnc2s1")
"> 100 µM"
>>> result("Cc1cccc(C(=O)O)c1CC1NCCC2c3ccccc3NC12 (stereo unspecified)")
"> 100 µM"
>>> result("COC(=O)C1=COc2c(n(C)c3ccccc23)-c2ccccc21")
"> 100 µM"
>>> result("Cn1c2ccccc2c2nnc(NNCc3ccccn3)nc21")
"16.5 µM"

---

TGI by entry:
# System: MOLT-4 leukemia
# Method: NCI tumour cell line growth inhibition, 48 h
Metric name: TGI

>>> result("Cc1cn2c(/C=N/N=C(N)N)c(-c3ccsc3)nc2s1")
"> 100 µM"
>>> result("C=CCn1c(-c2ccc(Cl)cc2Cl)csc1=Nc1c(C)n(C)n(-c2ccccc2)c1=O")
"18.6 µM"
>>> result("Cc1cc(S(N)(=O)=O)c(S/C(=N\\Nc2ccc([N+](=O)[O-])cc2)c2ccc3ccccc3c2)cc1Cl")
"> 100 µM"
>>> result("COc1cccc(C=C2N=C(C)N(n3c(-c4ccccc4)nc4ccccc4c3=O)C2=O)c1")
"> 100 µM"
>>> result("Cc1cc2c(C(C)C)c(O)c(O)c(C=Nc3ccccc3)c2c(O)c1-c1c(C)cc2c(C(C)C)c(O)c(O)c(C=Nc3ccccc3)c2c1O")
"> 100 µM"

---

# Tested on: DU-145 prostate
# Method: NCI tumour cell line growth inhibition, 48 h; in the data active = GI50 below about 0.43 µM; inactive = the rest
Outcomes: 1 (yes) = active, 0 (no) = inactive

>>> answer_label("Cn1c2ccccc2c2nnc(NNCc3ccccn3)nc21")
"1 (yes)"
>>> answer_label("N#C/C(=C\\c1cccc2cnccc12)N1N=NC2C=CC=CC21 (stereo not given)")
"0 (no)"
>>> answer_label("COc1cc(NC(C)CCCN)c2ncccc2c1Sc1ccc(Cl)cc1 (stereo not given)")
"0 (no)"
>>> answer_label("Cc1cc(O)cc(C)c1/C=C/c1cncc(C(=O)OC(C)(C)C)c1")
"0 (no)"
>>> answer_label("COc1ccc(-c2nc(-c3nc4ccc(C(F)(F)F)cc4[nH]3)c3ccccn23)cc1")
"0 (no)"

---

# Test system: MDA-MB-435
# Method: NCI tumour cell line growth inhibition, 48 h; in the data active means GI50 below about 0.43 µM; inactive means the rest
Outcome codes: active, inactive

>>> answer_label("Cc1cc(S(N)(=O)=O)c(S/C(=N\\Nc2ccc([N+](=O)[O-])cc2)c2ccc3ccccc3c2)cc1Cl")
"inactive"
>>> answer_label("COc1cc(NC(C)CCCN)c2ncccc2c1Sc1ccc(Cl)cc1 (centres undefined)")
"inactive"
>>> answer_label("O=C1N[C@H]2[C@H](O)[C@H](O)[C@@H](O)[C@H](O)[C@@H]2c2cc3c(c(O)c21)OCO3")
"active"
>>> answer_label("CC(OC(=O)N(N(CCCl)S(C)(=O)=O)S(C)(=O)=O)c1ccc([N+](=O)[O-])cc1 (centres undefined)")
"inactive"
>>> answer_label("CSc1nc(N)c2c(n1)NC(c1ccccc1)C1CCc3ccccc3C1=N2 (centres undefined)")
"inactive"
>>> answer_label("N#C/C(=C\\c1cccc2cnccc12)N1N=NC2C=CC=CC21 (centres undefined)")
"inactive"
>>> answer_label("COc1ccc(-c2nc(-c3nc4ccc(C(F)(F)F)cc4[nH]3)c3ccccn23)cc1")
"inactive"
>>> answer_label("CC(C)(C)OC(=O)NCCCCCCCCCCn1c2c(c3ccccc3c1=O)C(=O)c1ccccc1-2")
"inactive"
>>> answer_label("COc1ccc2[nH]c(O)c(/C=c3/ccc4c(c3)N=C(c3ccc(F)cc3)N=4)c2c1")
"inactive"

---

Reported TGI values follow for various molecules
# Test system: UO-31 renal
# Method: NCI tumour cell line growth inhibition, 48 h
Metric name: TGI

>>> result("CN(C)CCNc1nc2ccccc2c2occc12")
"> 100 µM"
>>> result("COc1cc(NC(C)CCCN)c2ncccc2c1Sc1ccc(Cl)cc1 (configuration not stated)")
"3.19 µM"
>>> result("O=[N+]([O-])c1ccc(O)c(C=NCC2CCCN3CCCCC23)c1 (configuration not stated)")
"> 100 µM"
>>> result("C[N+](C)(C)C(C1=CCCC1=O)c1ccccc1 (configuration not stated)")
"> 100 µM"
>>> result("Cc1cc2c(=O)[nH]c(N)nc2nc1C")
"> 100 µM"
>>> result("O=C(CCc1ccc(O)cc1)NCCCNC(=O)CCc1ccc(O)cc1")
"> 100 µM"
>>> result("NC(CO)C(=O)NCC(=O)O (configuration not stated)")
"> 100 µM"
>>> result("CCCCN1C(=O)CS/C1=N/Nc1nc2c([nH]1)c(=O)n(C)c(=O)n2C")
"> 100 µM"
>>> result("COc1ccc(C#CC2=C(c3cc(OC)c(OC)c(OC)c3)C(=O)OC2)cc1")
"> 50 µM"
>>> result("CC(C)[C@](O)(C(=O)OCC1=CCN2CC[C@@H](O)[C@@H]12)[C@H](C)O")
"> 375 µM"
>>> result("C/C=C1\\CCC2c3[nH]c4ccccc4c3CCN2C1 (configuration not stated)")
"> 100 µM"
>>> result("COc1ccc(-c2cc(-c3ccccc3)nc3c2CC(=O)Nc2ccccc2-3)cc1OC")
"> 100 µM"
>>> result("Cc1cc(S(N)(=O)=O)c(S/C(=N\\Nc2ccc([N+](=O)[O-])cc2)c2ccc3ccccc3c2)cc1Cl")
"> 100 µM"
>>> result("CCOP(=O)(CC(=O)C1=C(O)C(CCCCNC(=O)OC(C)(C)C)N(Cc2ccccc2)C1=O)OCC (configuration not stated)")
"> 100 µM"
>>> result("Cc1cc2c(=O)cc(-c3ccc(F)cc3)oc2c(C(=O)O)c1C")
"> 100 µM"
>>> result("CC(=O)C1=C(C)N(c2ccccc2)C2(O)C=CC(=O)C3=C(O)c4ccccc4C(=O)C312 (configuration not stated)")
"33.7 µM"
>>> result("CN1C(=O)C(=CN(C)c2ccccc2)C(=O)N(C)C1=O")
"> 100 µM"
>>> result("COc1ccc(-c2nc3cc(C(F)(F)F)ccc3n2CC2CCCN3CCCCC23)cc1 (configuration not stated)")
"38.8 µM"
>>> result("FC(F)(F)c1[nH]ncc1-c1nc2ccc3[nH]ncc3c2c2c1CCCC2")
"5 µM"
>>> result("COc1cc2c(cc1O)C(c1cc(O)c(O)c(OC)c1)C(O)(C(=O)O)C(CO)C2O (configuration not stated)")
"> 100 µM"
>>> result("CC(=O)c1ccc2c(c1)N(CCCN(C)C)c1ccccc1S2")
"29.1 µM"
>>> result("Cc1cc2c(C(C)C)c(O)c(O)c(C=Nc3ccccc3)c2c(O)c1-c1c(C)cc2c(C(C)C)c(O)c(O)c(C=Nc3ccccc3)c2c1O")
"> 100 µM"
